Listed here: items and their measured MIC90.
Tested on: Staphylococcus aureus
MEASUREMENT DESCRIPTION: Antibacterial activity against Staphylococcus aureus NCIM 2122 after 24 hrs by NCCLS method
Type: functional
CONDITION PARAMETERS: NCIM 2122, 24 h
Write the value in µg/mL as a bare number.

CC[C@H]1OC(=O)[C@H](C)[C@@H](O[C@H]2C[C@@](C)(OC)[C@@H](O)[C@H](C)O2)[C@H](C)[C@@H](O[C@@H]2O[C@H](C)C[C@H](N(C)C)[C@H]2O)[C@](C)(O)C[C@@H](C)C(=O)[C@H](C)[C@@H](O)[C@]1(C)O [ERYTHROMYCIN] ... 32
CC(=O)O[C@H]1CC[C@@]2(C)C(=CC[C@H]3[C@@H]4CC[C@H]([C@@](C)(O)c5ccccn5)[C@@]4(C)CC[C@@H]32)C1 ... 32
C[C@]12CC[C@H]3[C@@H](CC=C4C[C@@H](O)CC[C@@]43C)[C@@H]1CC[C@@H]2[C@@](C)(O)c1nccs1 ... 8

The reported Staphylococcus aureus MIC90 of CC(=O)[C@H]1[C@H](c2ccccn2)C[C@H]2[C@@H]3CC=C4C[C@@H](O)CC[C@]4(C)[C@H]3CC[C@@]21C is 8

Observed MIC90, Staphylococcus aureus, CC(=O)O[C@H]1CC[C@@]2(C)C(=CC[C@H]3[C@@H]4CC[C@H]([C@@](C)(O)c5nccs5)[C@@]4(C)CC[C@@H]32)C1 : 32

* * *

System: Benjaminiella poitrasii
MEASUREMENT DESCRIPTION: Antifungal activity against Benjaminiella poitrasii isolate NCL3 after 24 hrs by M38-P broth dilution method
Type: functional
CONDITION PARAMETERS: isolate NCL3, 24 h
VALUE TYPE: MIC90 (mg/L)
Please reply with the bare figure in mg/L and do not write the unit itself.

Examples with their reported MIC90 follow.
CC(C)(C)[Si](C)(C)O[C@H]1CC[C@@]2(C)C(=CC[C@H]3[C@@H]4CC[C@H]([C@@](C)(O)c5ccccn5)[C@@]4(C)CC[C@@H]32)C1 ... 16
C[C@]12CC[C@H]3[C@@H](CC=C4C[C@@H](O)CC[C@@]43C)[C@@H]1CC[C@@H]2[C@@](C)(O)c1nccs1 ... 32

Entry CC(C)(C)[Si](C)(C)O[C@H]1CC[C@@]2(C)[C@@H](CC[C@@H]3[C@@H]2CC[C@@]2(C)[C@H]3CC[C@@H]2[C@@](C)(O)c2nccs2)C1 ; MIC90 = 32

* * *

Reported MIC90 values for the following molecules.
Test system: Fusarium oxysporum
MEASUREMENT DESCRIPTION: Antifungal activity against Fusarium oxysporum isolate NCL5 after 48 hrs by broth dilution method
Format: functional
CONDITION PARAMETERS: isolate NCL5, 48 h

C[C@]12CC[C@H](O)C[C@@H]1CC[C@@H]1[C@@H]2CC[C@@]2(C)[C@H]1CC[C@@H]2[C@@](C)(O)c1nccs1 ... > 64 µg/mL
CC(C)(C)[Si](C)(C)O[C@H]1CC[C@@]2(C)C(=CC[C@H]3[C@@H]4CC[C@H]([C@@](C)(O)c5nccs5)[C@@]4(C)CC[C@@H]32)C1 ... > 64 µg/mL

Now consider a different molecule.
MIC90 reading for CC(=O)O[C@H]1CC[C@@]2(C)[C@@H](CC[C@@H]3[C@@H]2CC[C@@]2(C)[C@H]3CC[C@@H]2[C@@](C)(O)c2ccccn2)C1 : > 64 µg/mL
